- measured_on: human Fatty Acid Synthase (Homo sapiens, UniProt P49327)
- Construct: made in house
- Sequence (P49327 whole entry): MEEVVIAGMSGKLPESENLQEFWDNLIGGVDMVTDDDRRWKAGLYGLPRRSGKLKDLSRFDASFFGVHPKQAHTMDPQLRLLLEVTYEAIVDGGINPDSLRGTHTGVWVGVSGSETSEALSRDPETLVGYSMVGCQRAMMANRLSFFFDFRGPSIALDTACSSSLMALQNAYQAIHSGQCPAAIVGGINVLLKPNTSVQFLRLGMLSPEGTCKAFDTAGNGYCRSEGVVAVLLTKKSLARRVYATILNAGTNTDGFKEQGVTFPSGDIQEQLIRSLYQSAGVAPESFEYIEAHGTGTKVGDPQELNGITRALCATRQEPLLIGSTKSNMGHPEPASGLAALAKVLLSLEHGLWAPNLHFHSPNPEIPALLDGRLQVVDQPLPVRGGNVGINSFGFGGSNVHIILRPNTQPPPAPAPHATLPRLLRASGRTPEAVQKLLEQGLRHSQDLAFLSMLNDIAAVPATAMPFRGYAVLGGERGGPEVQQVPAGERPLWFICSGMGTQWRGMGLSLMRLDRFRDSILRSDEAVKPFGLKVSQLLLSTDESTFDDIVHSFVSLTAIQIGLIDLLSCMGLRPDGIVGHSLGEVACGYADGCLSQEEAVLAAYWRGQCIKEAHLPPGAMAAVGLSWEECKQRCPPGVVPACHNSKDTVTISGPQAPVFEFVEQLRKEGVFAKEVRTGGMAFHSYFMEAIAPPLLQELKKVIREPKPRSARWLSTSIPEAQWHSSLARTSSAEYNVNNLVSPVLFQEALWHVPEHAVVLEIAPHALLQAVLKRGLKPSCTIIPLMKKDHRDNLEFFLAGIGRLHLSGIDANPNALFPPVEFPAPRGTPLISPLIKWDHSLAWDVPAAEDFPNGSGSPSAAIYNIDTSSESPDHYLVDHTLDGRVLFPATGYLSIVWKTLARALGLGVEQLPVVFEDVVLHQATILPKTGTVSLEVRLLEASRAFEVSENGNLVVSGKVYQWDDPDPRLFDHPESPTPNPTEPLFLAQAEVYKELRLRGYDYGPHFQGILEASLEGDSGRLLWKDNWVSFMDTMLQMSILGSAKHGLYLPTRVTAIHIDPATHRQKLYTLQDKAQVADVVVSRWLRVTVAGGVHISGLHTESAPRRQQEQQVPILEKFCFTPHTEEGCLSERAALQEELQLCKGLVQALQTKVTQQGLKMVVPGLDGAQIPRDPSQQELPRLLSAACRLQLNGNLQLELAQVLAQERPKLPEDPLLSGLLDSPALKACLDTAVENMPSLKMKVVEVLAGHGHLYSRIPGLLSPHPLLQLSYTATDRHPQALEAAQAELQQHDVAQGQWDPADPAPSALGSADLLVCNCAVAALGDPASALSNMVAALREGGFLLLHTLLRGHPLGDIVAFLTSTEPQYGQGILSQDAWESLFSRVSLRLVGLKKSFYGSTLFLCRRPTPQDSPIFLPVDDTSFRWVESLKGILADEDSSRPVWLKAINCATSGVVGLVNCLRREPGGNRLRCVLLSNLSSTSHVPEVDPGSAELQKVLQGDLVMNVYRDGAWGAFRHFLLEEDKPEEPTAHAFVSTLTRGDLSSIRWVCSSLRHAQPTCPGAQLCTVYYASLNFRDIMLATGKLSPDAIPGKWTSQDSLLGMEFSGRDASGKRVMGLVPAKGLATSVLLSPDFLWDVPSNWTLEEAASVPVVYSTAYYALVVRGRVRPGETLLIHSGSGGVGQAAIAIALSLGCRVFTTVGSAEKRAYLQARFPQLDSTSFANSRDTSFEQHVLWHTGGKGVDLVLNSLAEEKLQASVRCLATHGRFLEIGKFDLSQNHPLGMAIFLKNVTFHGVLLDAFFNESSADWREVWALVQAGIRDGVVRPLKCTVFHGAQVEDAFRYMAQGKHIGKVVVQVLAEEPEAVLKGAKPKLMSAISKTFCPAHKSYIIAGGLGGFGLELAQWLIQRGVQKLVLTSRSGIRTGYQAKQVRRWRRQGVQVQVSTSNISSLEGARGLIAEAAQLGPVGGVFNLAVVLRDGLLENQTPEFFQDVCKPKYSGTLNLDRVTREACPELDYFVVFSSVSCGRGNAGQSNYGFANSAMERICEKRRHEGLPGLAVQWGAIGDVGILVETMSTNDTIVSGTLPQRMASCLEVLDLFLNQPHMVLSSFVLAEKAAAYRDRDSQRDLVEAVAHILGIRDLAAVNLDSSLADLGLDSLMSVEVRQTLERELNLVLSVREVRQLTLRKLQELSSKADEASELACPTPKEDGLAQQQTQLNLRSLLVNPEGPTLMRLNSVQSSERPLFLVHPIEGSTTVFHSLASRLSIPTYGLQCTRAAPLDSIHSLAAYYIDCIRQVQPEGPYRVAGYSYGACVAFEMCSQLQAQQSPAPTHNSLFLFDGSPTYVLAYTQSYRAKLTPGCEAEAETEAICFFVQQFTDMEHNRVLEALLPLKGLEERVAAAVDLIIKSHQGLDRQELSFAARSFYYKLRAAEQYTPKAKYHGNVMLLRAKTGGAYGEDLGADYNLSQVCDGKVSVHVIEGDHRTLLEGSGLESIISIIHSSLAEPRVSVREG
- assay_remarks: Human FAS enzyme assay (decrease in NADPH fluorescence)
- Type: biochemical
- test_settings: % inhibition at a concentration of 100 micromolar
Entry class follows inhibition at 100 µM: lo (below 80%), mid (80% to below 90%), hi (90% or more)

Exam item: Could you tell me which band Cc1ccc(C(=O)N2CCC(c3ccc(C#N)cc3)CC2)cc1NS(=O)(=O)C(F)(F)F belongs to?
Marked response: lo

Exam item: Could you tell me which band Cc1ccc(C(=O)N2CCC(c3ccc(-c4ncon4)cc3)CC2)cc1NS(C)(=O)=O belongs to?
Marked response: mid

Exam item: Could you tell me which band Cc1ccc(C(=O)N2CCC(c3ccc(C#N)cc3)CC2)cc1NS(=O)(=O)CC(=O)O belongs to?
Marked response: lo

Exam item: Could you tell me which band COc1ccc(C2CCN(C(=O)c3ccc(C)c(NS(C)(=O)=O)c3)CC2)cc1 belongs to?
Marked response: mid

Exam item: Could you tell me which band Cc1ccc(C(=O)N2CCC(c3ccc(S(=O)(=O)NCCO)cc3)CC2)cc1NS(C)(=O)=O belongs to?
Marked response: mid

Exam item: Could you tell me which band Cc1ccc(C(=O)N2CCC(c3ccc(Oc4ccccn4)cc3)CC2)cc1NS(C)(=O)=O belongs to?
Marked response: hi

Exam item: Could you tell me which band Cc1ccc(C(=O)N2CCC(c3ccc(C#N)cc3)CC2)cc1NS(=O)(=O)CCCN belongs to?
Marked response: mid

Exam item: Could you tell me which band N#Cc1ccc(C2CCN(C(=O)c3ccc(Cl)c(NS(=O)(=O)c4ccccc4F)c3)CC2)cc1 belongs to?
Marked response: lo

Exam item: Could you tell me which band CC(=O)NCCCS(=O)(=O)Nc1cc(C(=O)N2CCC(c3ccc(C#N)cc3)CC2)ccc1C belongs to?
Marked response: hi

Exam item: Could you tell me which band Cc1ccc(C(=O)N2CCC(c3ccc(C#N)cc3)CC2)cc1NS(=O)(=O)c1cccc(C(=O)O)c1 belongs to?
Marked response: hi

Exam item: Could you tell me which band Cc1ccc(C(=O)N2CCC(O)(c3ccc(Br)cc3)CC2)cc1NS(C)(=O)=O belongs to?
Marked response: lo

====

Field: inhibition at 100 µM. Provide a value for each of the compounds that follow.
- measured_on: human Fatty Acid Synthase (Homo sapiens, UniProt P49327)
- Construct: made in house
- assay_remarks: Human FAS enzyme assay (decrease in NADPH fluorescence)
- Assay type: biochemical
- test_settings: % inhibition at a concentration of 100 micromolar

# inhibition at 100 µM of Cc1ccc(C(=O)N2CCC(c3ccc(SC(F)(F)F)cc3)CC2)cc1NS(C)(=O)=O [Example 232] = 88.9%

# inhibition at 100 µM of Cc1ccc(C(=O)N2CCC(c3ccc(C#N)cc3)CC2)cc1NS(=O)(=O)C1CCN(S(=O)(=O)C(C)C)CC1 [Example 119] = 94%

# inhibition at 100 µM of Cc1ccc(C(=O)N2CCC(c3ccc(C#N)cc3)CC2)cc1NS(=O)(=O)CCCO [Example 205] = 75%

# inhibition at 100 µM of Cc1ccc(C(=O)N2CCC(c3ccc(CN4CCOCC4)cc3)CC2)cc1NS(C)(=O)=O [Example 243] = 69.9%

# inhibition at 100 µM of COC(=O)c1cccc(S(=O)(=O)Nc2cc(C(=O)N3CCC(c4ccc(C#N)cc4)CC3)ccc2C)c1 [Example 76] = 97%

# inhibition at 100 µM of Cc1ccc(C(=O)N2CCC(c3ccc(Br)cc3)CC2)cc1NS(C)(=O)=O [Example 169] = 90%

# inhibition at 100 µM of Cc1ccc(C(=O)N2CCC(c3ccc(C#N)cc3)CC2)cc1NS(=O)(=O)Cc1ccc(F)cc1F [Example 61] = 93%

# inhibition at 100 µM of Cc1ccc(C2CCN(C(=O)c3ccc(C)c(NS(C)(=O)=O)c3)CC2)cc1 [Example 158] = 81%

# inhibition at 100 µM of Cc1ccc(C(=O)N2CCC(c3ccc(C#N)cc3)CC2)cc1NS(=O)(=O)CCO [Example 109] = 94%

# inhibition at 100 µM of COCc1ccc(C(=O)N2CCC(c3ccc(C#N)cc3)CC2)cc1NS(C)(=O)=O [Example 161] = 80%

# inhibition at 100 µM of CCCS(=O)(=O)NCc1ccc(C2CCN(C(=O)c3ccc(C)c(NS(C)(=O)=O)c3)CC2)cc1 [Example 237] = 85.2%

# inhibition at 100 µM of Cc1ccc(C(=O)N2CCC(c3ccc(CNC(=O)CC(C)C)cc3)CC2)cc1NS(C)(=O)=O [Example 236] = 59.8%

# inhibition at 100 µM of Cc1ccc(C(=O)N2CCC(c3ccc(NS(C)(=O)=O)cc3)CC2)cc1NS(C)(=O)=O [Example 221] = 74%

# inhibition at 100 µM of Cc1ccc(C(=O)N2CCC(c3ccc(C#N)cc3)CC2)cc1NS(=O)(=O)CCCNC(=O)c1ccccc1 [Example 133] = 91%

# inhibition at 100 µM of CCC(=O)NCc1ccc(C2CCN(C(=O)c3ccc(C)c(NS(C)(=O)=O)c3)CC2)cc1 [Example 225] = 89.1%

# inhibition at 100 µM of Cc1ccc(C(=O)N2CCC(c3ccc(Cl)cc3)CC2)cc1NS(=O)(=O)C1CCS(=O)(=O)C1 (stereo not shown) [Example 216] = 89%

# inhibition at 100 µM of Cc1ccc(C(=O)N2CCC(c3ccc(C#N)cc3)CC2)cc1NS(=O)(=O)c1cccc(C(=O)NCCO)c1 [Example 84] = 92%

# inhibition at 100 µM of Cc1ccc(NS(=O)(=O)CC(C)C)cc1C(=O)N1CCC(c2ccc(C#N)cc2)CC1 [Example 57] = 94%

# inhibition at 100 µM of Cc1ccc(C(=O)N2CCC(c3ccc(CNC(=O)C(C)C)cc3)CC2)cc1NS(C)(=O)=O [Example 226] = 81%

# inhibition at 100 µM of Cc1ccc(C(=O)N2CCC(c3ccc(C#N)cc3)CC2)cc1NS(=O)(=O)C1CCCCC1 [Example 17] = 94%

# inhibition at 100 µM of CCCS(=O)(=O)Nc1ccc(C)c(C(=O)N2CCC(c3ccc(C#N)cc3)CC2)c1 [Example 33] = 91%

# inhibition at 100 µM of Cc1ccc(C(=O)N2CCC(c3ccc(C#N)cc3)CC2)cc1NS(=O)(=O)Cc1ccccc1F [Example 26] = 94%

# inhibition at 100 µM of CCCCS(=O)(=O)Nc1ccc(C)c(C(=O)N2CCC(c3ccc(C#N)cc3)CC2)c1 [Example 37] = 91%

# inhibition at 100 µM of Cc1ccc(C(=O)N2CCC(c3ccc(C#N)cc3)CC2)cc1NS(=O)(=O)CC#N [Example 212] = 69%

# inhibition at 100 µM of COC(=O)c1ccccc1S(=O)(=O)Nc1cc(C(=O)N2CCC(c3ccc(C#N)cc3)CC2)ccc1C [Example 108] = 78%

# inhibition at 100 µM of Cc1ccc(C(=O)N2CCC(O)(c3ccc(C#N)cc3)CC2)cc1NS(=O)(=O)Cc1ccccc1 [Example 70] = 87%

# inhibition at 100 µM of COc1ccccc1S(=O)(=O)Nc1ccc(C)c(C(=O)N2CCC(c3ccc(C#N)cc3)CC2)c1 [Example 50] = 87%

# inhibition at 100 µM of CCS(=O)(=O)Nc1cc(C(=O)N2CCC(c3ccc(C#N)cc3)CC2)c(C)cc1C [Example 166] = 96%

# inhibition at 100 µM of Cc1ccc(C(=O)N2CCC(c3ccc(C#N)cc3)CC2)cc1NS(=O)(=O)C1CCN(S(C)(=O)=O)C1 (stereo not shown) [Example 154] = 99%

# inhibition at 100 µM of Cc1ccc(C(=O)N2CCC(c3ccc(C#N)cc3)CC2)cc1NS(=O)(=O)c1cccc(C#N)c1 [Example 21] = 90%

# inhibition at 100 µM of Cc1ccc(NS(=O)(=O)Cc2ccc(F)cc2F)cc1C(=O)N1CCC(c2ccc(C#N)cc2)CC1 [Example 56] = 89%

Cited source for all entries: patent US20090105305A1
